# EXPERIMENTAL SYSTEM: Protein kinase C alpha type (Homo sapiens)
EXPERIMENTAL READOUT: pKi
Please note pKi is a logarithmic value: minus log10 of concentration in mol/L. Answer with that number alone.

input: // lookup pKi | system=Protein kinase C alpha type (Homo sapiens) | key= CCCCCCCC(=O)OCCCC1(CO)C/C(=C/CC(C(C)C)C(C)C)C(=O)O1 (configuration not stated)
output: 6.13

input: Form field: pKi recorded for CCCCCCCCC(=O)OCCC1(CO)C/C(=C/CC(C(C)C)C(C)C)C(=O)O1 (configuration not stated) with Protein kinase C alpha type (Homo sapiens) (enter value)
output: 6.68
